- measurement description: binders from COS7 lysate, DM2A8 probe, primary screen, torsin A project, cell lysate, small-molecule microarray, fluorescence 635/667 (AID 1065)
- condition label: higher = more signal, COS7 lysate expressing mutant human TOR1A
Returns one of yes (1) or no (0); yes (1) when composite z-score is >= 0.2.

[[record]]
compound = "C=C(CCCC)/C(=C/C[C@@H](OC(C)=O)c1ccccc1OCCO)c1cc(C(=O)OC)ccc1OC"
class = "no (0)"

[[record]]
compound = "CCCCN1CC=CC23O[C@@H]4C=CCOC(=O)[C@@H]4[C@H]2C(=O)N(CCCCCCO)[C@@H]3C1=O (stereo partly specified)"
class = "no (0)"

[[record]]
compound = "CC(C)(C)OC(=O)CC[C@@]1(C(=O)N2CCCCC2)N=C(c2ccc(OCCCO)cc2)O[C@@H]1c1ccccc1"
class = "yes (1)"

[[record]]
compound = "C=C[C@H](C)[C@@H](OC(=O)Nc1ccc(SC)cc1)c1ccc(O)c2ccccc12"
class = "no (0)"


Now, please, on to the next compound.
Test whether the compound CS(=O)(=O)CCOC(=O)C1=CC(CCCO)=CC(C2CC2)N(Cc2cc3c(cc2Br)OCO3)C=C1C(=O)OCCS(C)(=O)=O (stereo unspecified) records composite z-score of 0.2 or higher. yes (1)

* * *

- measurement description: probe aLefty1 binding on compound microarray – biochemical, small-molecule microarray, 635/667 nm fluorescence, primary screen (AID 1153);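 also: score merges spot fluorescence with signal-to-noise ratio from the scanned slide images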
- condition label: higher = more signal
quantity measured: composite z-score
One number for each entry.

[[record]]
compound = "CC(C)[C@@H](C(=O)O)n1cc(C2(O)CCCCC2)nn1"
recorded_result = -0.188


State the recorded composite z-score for every item in the following list.
1. C=CC[C@@]1(C(=O)N2CCCCC2)N=C(c2ccc(OCCCO)cc2)O[C@@H]1c1ccccc1CN=[N+]=[N-]
2. CC=CC(O)C1C=CC2C(=O)N(C)C(=O)C2N1N(c1ccccc1)c1ccccc1 (configuration not stated)
3. COC(=O)c1c(CC[C@@H](CO)NC(=O)N[C@H](Cc2ccccc2)Cn2cc(-c3ccccn3)nn2)oc(C(C)=O)c1C(=O)OC
4. COCCCNC(=O)[C@@H]1c2ccccc2C(=O)N(Cc2ccccc2OC)[C@H]1c1ccc(CO)cc1

1: 0.393; 2: -0.101; 3: -0.194; 4: 0.278

Please go through the list and note composite z-score for each compound.
1. COc1ccc(NC(=O)O[C@H]2[C@H](OC(=O)c3cc4ccccc4[nH]3)[C@@H](OC(=O)c3cc4ccccc4[nH]3)[C@@H](OC)O[C@@H]2CO)cc1
2. O=C1OCCC/C=C\[C@H]2OC34C=CCN(c5ccc6ccccc6c5)C(=O)[C@H]3N(CCCCCO)C(=O)[C@@H]4C12 (some centres not stated)
3. COC(=O)[C@@]1(Cc2ccccc2)[C@H]2c3cc(C(=O)N(C)C)n(CCc4c[nH]c5ccc(O)cc45)c3C[C@H]2CN1C(=O)c1ccccc1
4. C=CCN1C(=O)[C@]2(Cc3ccccc3)N=C(c3ccc(OCCCO)cc3)O[C@@H]2c2ccccc21
5. COCCCNC(=O)[C@@]1(Sc2ccc(C)cc2)CC(=O)N(Cc2ccccc2Cl)[C@@H]1c1ccc(CO)cc1

[-0.0529, -0.147, -0.0831, 0.43, -0.0011]

Would you be so kind as to report composite z-score for each listed record?
1. O=C(NC1CC1)[C@@H]1c2ccccc2C(=O)N(Cc2cc(F)cc(C(F)(F)F)c2)[C@H]1c1ccc(CO)cc1
2. NCCCCCNC(=O)[C@H]1C[C@H]2C(=O)N3CCC[C@H]3C(=O)N2[C@H]1c1ccc(O)cc1

-0.205
1.17

* * *

- measurement description: compound effects on multiple myeloma cell viability – MM1S, calcein-AM fluorescence, 48 h, basal, profiling panel (AID 1165);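 also: viability of MM1S multiple myeloma cells under basal unstimulated conditions; test concentration not given here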
- condition label: higher = more signal
Please go through the items and note down their z-score.
Numbers only.

List reported z-score for each of these compounds:
1. COc1ccc(C(=O)Nc2ccc(CN3C(=O)[C@]4(O[C@H](CC(=O)N5CCC[C@H]5CO)[C@@H]([Si](C)(C)c5ccc(OC)cc5)[C@@H]4C)c4ccccc43)cc2)cc1
2. NC(=O)NCC#Cc1ccc2c(c1)[C@]1(C(=O)N2)[C@H](C(=O)O)[C@H]2C(=O)O[C@H](c3ccccc3)[C@H](c3ccccc3)N2[C@@H]1c1ccc(O)cc1
3. NC(=O)N1C(=O)C2C(C1=O)C1C=C(CCCO)C2C(C2CC2)N1Cc1cc2c(cc1Br)OCO2 (stereo not drawn)
4. CCCCC(=C=CC[C@@H](O)c1ccc(CO)o1)CCO
5. Cc1ccc(S[C@]2(C(=O)NCC(C)C)CC(=O)N(Cc3cc(C(F)(F)F)cc(C(F)(F)F)c3)[C@@H]2c2ccc(CO)cc2)cc1
6. C=CCC(OC(C)=O)[C@@H]1[C@@H](N(Cc2ccc(-c3ccccc3)cc2)C(=O)Cc2ccc(F)cc2)c2cc(OCCCO)ccc2N1C(=O)c1ccc2ccccc2c1 (stereo partly drawn)
7. O=C1OCCC=C[C@H]2OC34C=CCN(c5ccc(Cl)cc5)C(=O)[C@H]3N(CCCO)C(=O)[C@@H]4C12 (stereo partly drawn)

1. -2.83
2. -0.944
3. -2.42
4. -0.277
5. -0.741
6. -0.895
7. 0.435

Give measured z-score for every item shown.
1. COCCOC(=O)N1C(=O)[C@@]2(c3ccccc31)[C@H](C(=O)N1CCCCCCC1)[C@H]1C(=O)O[C@H](c3ccccc3)[C@H](c3ccccc3)N1[C@@H]2c1ccc(OCCO)cc1
2. O=C(NC1CC1)[C@@H]1c2ccccc2C(=O)N(C2Cc3ccccc3C2)[C@H]1c1ccc(CO)cc1
3. CC(c1ccccc1)C(O)C1C=CC2C(=O)N(C)C(=O)C2N1NC(=O)OC(C)(C)C (stereo not drawn)
4. CN(C)CCCCNC(=O)[C@@H]1C[C@@H]2C(=O)N[C@@H](CCCCN)C(=O)N2[C@@H]1c1ccc(O)cc1
5. CCCC1(C(=O)OC)C=C2C(=C(c3ccccc3)C(=O)C2C)CN1 (stereo not drawn)
6. COc1ccc(NN2C(C(O)c3ccc(N(C)C)cc3)C=CC3C(=O)N(C4CCCCC4)C(=O)C32)cc1 (stereo not drawn)

1: -0.88; 2: 0.62; 3: -0.391; 4: -0.388; 5: 0.136; 6: 0.0375

* * *

For each entry below, report its composite z-score value.
- measurement description: probe aWnt5a binding to arrayed compounds – biochemical, biotinylated probe, 635/667 nm fluorescence, primary screen (AID 1113);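 also: score merges 667 nm fluorescence intensity with signal-to-noise per printed feature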
- condition label: small-molecule microarray, higher = more signal

Known composite z-score results, listed for orientation:
[[record]]
compound = "CC(=CC1CCCCC1)[C@@H](NC(=O)c1cccnc1)c1ccc(-c2ccccc2)cc1"
quantity_measured = "composite z-score"
recorded_result = -0.13

[[record]]
compound = "COC(=O)[C@]1(Cc2ccccc2)N=C(c2ccc(OCCCO)cc2)O[C@@H]1c1ccccc1N=[N+]=[N-]"
quantity_measured = "composite z-score"
recorded_result = -0.0236

[[record]]
compound = "C=CCOC(=O)[C@H]1[C@@H]2C(=O)O[C@@H](c3ccccc3)[C@@H](c3ccccc3)N2[C@@H](c2ccc(OCCOC(=O)[C@H]3C[C@H]4C(=O)N[C@@H](CCCCN(C)C)C(=O)N4[C@H]3c3cccc(OCCO)c3)cc2)[C@]12C(=O)Nc1ccc(I)cc12"
quantity_measured = "composite z-score"
recorded_result = 0.108


Could you report composite z-score for every entry in the following list?
1. CC(C)CNC(=O)[C@@]1(Cc2ccccc2I)c2ccccc2C(=O)N(Cc2ccccc2C(F)(F)F)[C@H]1c1ccc(CO)cc1
2. O=C1O[C@@H](c2ccccc2)[C@@H](c2ccccc2)N2[C@@H](c3ccccc3OCCO)[C@]3(C(=O)Nc4ccc(C#CC5(O)CCCCCC5)cc43)[C@@H](C(=O)N3CCN(c4ncccn4)CC3)[C@H]12
3. COCC(=C=CC[C@@H](O)c1ccc(OCCO)cc1)C[C@@H](O)c1ccccn1
4. [N-]=[N+]=NCc1ccccc1[C@@H]1OC(c2ccc(OCCCO)cc2)=N[C@]1(CCS(=O)(=O)c1ccccc1)C(N)=O
5. CC(C)[Si](C#CCCCC#N)(Oc1ccccc1Br)C(C)C
6. CCOC(=O)C1=CC[C@@H](c2ccccc2)N(S(=O)(=O)c2ccc(C)cc2)[C@H]1c1ccc(CC)cc1

1: -0.176; 2: -0.0165; 3: 0.0173; 4: 0.164; 5: -0.0512; 6: -0.0384

// composite z-score value for COc1ccc(NN2C(C(O)c3ccc(N(C)C)cc3)C=CC3C(=O)N(C4CCCCC4)C(=O)C32)cc1 (stereo not given) : 0.351

* * *

Provide the reported z-score of each item.
- measurement description: inhibition of PAO1 biofilm formation – strain PAO1, LB-PBS medium, absorbance 600 nm, primary screen (AID 1176); also: test concentration not given here
- condition label: P. aeruginosa PAO1 growth/biofilm, A600, 12 h; higher = more signal
Answers are plain numbers.

[[record]]
smiles_entry = "C=CC[C@@]1(C(=O)N2CCCCC2)N=C(c2ccc(OCCCO)cc2)O[C@@H]1c1ccccc1N=[N+]=[N-]"
quantity_measured = "z-score"
recorded_result = 0.302

[[record]]
smiles_entry = "CC(=O)NCCCC[C@@H]1NC(=O)[C@H]2C[C@@H](C(=O)O)[C@@H](c3ccc(O)cc3)N2C1=O"
quantity_measured = "z-score"
recorded_result = 0.711


# batch: return z-score for each of the 2 compounds below
1. CCOC(=O)C[C@H]1[C@H](OC(=O)c2ccc(-c3ccccc3)cc2)[C@@H](NC(=O)c2ccccc2)c2cc(OCCCO)ccc2N1C(=O)c1ccc2ccccc2n1
2. COCC(=C=CC[C@H](O)c1ccccc1OCCO)CCO

-0.17
0.26
